Assay: Selectivity index, ratio of IC50 for sorbitol dehydrogenase to IC50 for kidney aldose reductase 2
Give measured Ratio IC50 for each item. Keep answers brief.
One number for each entry.

Some compounds with recorded Ratio IC50:
compound=Cc1cc(=O)oc2cc(O)c(O)cc12 reading=5.54
compound="O=c1oc2ccccc2cc1O [3-HYDROXYCOUMARIN]" reading=0.62
compound=O=c1ccc2ccc(O)cc2o1 reading=1.4
compound=Cc1cc(=O)oc2cc(O)ccc12 reading=1.7
compound=O=C(O)Cc1cc(=O)oc2cc(O)c(O)cc12 reading=6.27
compound=O=c1cc(-c2ccccc2)c2cc(O)c(O)cc2o1 reading=30
compound=O=c1ccc2cc(O)c(O)cc2o1 reading=2.27
compound=COc1cc2ccc(=O)oc2cc1O reading=2.98
compound=O=C(O)Cc1cc(=O)oc2cc(O)ccc12 reading=1.15

# next compound below
Recorded Ratio IC50 (compound `O=c1cc(-c2ccccc2)c2ccc(O)cc2o1` ): 1.93
